- Target Of Assay: BRD4 BD2 (Homo sapiens, UniProt O60885)
- Method: AlphaScreen binding assay, BRD4 Bromodomain 2
pIC50: −log10 of the molar value.
Observable: pIC50

Here's what some known entries look like.
Input `CC(=O)N1c2ccc(-c3cnn(C4CC4)c3)cc2N(C(=O)Oc2ccccc2F)C[C@@H]1C` . Output pIC50: 6.30 to 7.30

Input `CC(=O)N1c2ccccc2N(C(=O)c2cc3cc(Cl)ccc3o2)C[C@@H]1C` . Output pIC50: < 6.30

Input `CC(=O)N1c2ccc(-c3ccc4cnccc4c3)cc2N(C(=O)c2ccco2)C[C@@H]1C` . Output pIC50: 6.30 to 7.30

Input `CC(=O)N1c2cc(F)c(-c3ccc(S(C)(=O)=O)cc3)cc2N(C(=O)OC(C)C)C[C@@H]1C` . Output pIC50: < 6.30

Input `COC(=O)N1c2ccc(-c3cnn(CCS(C)(=O)=O)c3)cc2N(C(=O)OC(C)C)C[C@@H]1C` . Output pIC50: 6.30 to 7.30

Input `CC(=O)N1c2ccc(-c3ccc(N4CCOCC4)cc3)cc2N(C(=O)OC2CCOCC2)C[C@@H]1C` . Output pIC50: 6.30 to 7.30

Quick request: pIC50 for each listed item, please.
1. CC(=O)N1c2ccc(-c3ccc4c(c3)CCCN4S(C)(=O)=O)cc2N(C(=O)OC(C)C)C[C@@H]1C
2. CC(=O)N1c2ccc(-c3cncnc3)cc2N(C(=O)c2ccco2)C[C@@H]1C
3. CC(=O)N1c2ccc(-c3cnn(C(C)(C)C(N)=O)c3)cc2N(C(=O)C2CC2)C[C@@H]1C
4. CC(=O)N1c2ccc(-c3ccc(S(=O)(=O)CCN)cc3)cc2N(C(=O)OC(C)C)C[C@@H]1C
5. C[C@H]1CN(C(=O)C2CC2)c2cc(-c3ccc(CS(N)(=O)=O)cc3)ccc2N1C(=O)C1CC1
6. CC(=O)N1c2ccc(-c3ccc(S(C)(=O)=O)cc3)cc2N(C(=O)Oc2ccc3ccccc3c2)C[C@@H]1C

1: 6.30 to 7.30; 2: 6.30 to 7.30; 3: 6.30 to 7.30; 4: > 7.30; 5: 6.30 to 7.30; 6: > 7.30

Quick request: pIC50 for each listed item, please.
1. CC(=O)N1c2ccc(-c3cnn(C4CC4)c3)cc2N(C(=O)Oc2ccc3ccncc3c2)C[C@@H]1C
2. CCc1ccc(CN2C[C@H](C)N(C(C)=O)c3ccccc32)cc1
3. CC(=O)N1c2ccc(-c3ccc(CS(N)(=O)=O)cc3)cc2N(C(=O)OC(C)C)C[C@@H]1C

["> 7.30", "< 6.30", "6.30 to 7.30"]
